Assay: caspase-8 TRAIL sensitization, hit retest, confirmation, cell-based, NB7+caspase-8, with/without TRAIL, luminescence panel (AID 651596)
Details: NB7 neuroblastoma + caspase-8, without TRAIL, luminescence viability, without TRAIL, mean of runs, at 10 µM
// returns 0 unless activity is strictly below 70%, in which case 1

COMPOUND STRUCTURE STRING	LABEL
C#CCSc1nnc(-c2ccc(OC)cc2)o1	0
O=C(N/N=C/c1cccs1)c1ccc2c(c1)OCO2	1
Cc1cc(C)cc(NS(=O)(=O)c2ccc3[nH]cc(C(=O)NCc4ccco4)c(=O)c3c2)c1	0
C(=N\NC1=Nc2cccc3cccc1c23)/c1ccccc1	1
COc1ccc(-c2nnc(SCC(=O)c3[nH]c(C)c(C(C)=O)c3C)o2)cc1	1

###

Target: Caspase-3 (Homo sapiens) (UniProt P42574)
Sequence (P42574 28-227 limits assumed): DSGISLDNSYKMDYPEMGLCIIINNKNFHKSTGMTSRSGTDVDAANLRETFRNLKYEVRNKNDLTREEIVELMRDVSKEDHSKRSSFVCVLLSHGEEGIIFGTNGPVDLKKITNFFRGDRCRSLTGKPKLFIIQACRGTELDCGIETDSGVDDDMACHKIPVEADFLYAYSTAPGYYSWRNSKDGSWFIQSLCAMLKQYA
Experiment: caspase-3 protease inhibitors, confirmation, selectivity assay for SENP inhibitor project, biochemical, single concentration (AID 488918);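 also: plate controls were enzyme with DMSO for no effect and wells without caspase-3 for full effect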
Conditions: purified caspase-3, Z-DEVD-aminoluciferin luminescence, 60 min; at 12.5 µM
The other results are listed elsewhere or left out. Calls of active or inactive are those of the source.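 How the source made its calls: active means mean inhibition above about 50% (limit read from the data); inactive means the rest.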
Labels: active, inactive

COMPOUND	LABEL
COc1ccc(/C=C2/SC(=O)N(CCCCCC(=O)Nc3ccccc3C(=O)O)C2=S)cc1	inactive
O=[N+]([O-])c1ccccc1N/N=C1\CCc2ccccc21	inactive
CC(=O)N1C(=O)/C(=C2\SC(=S)N(NC(=O)c3ccc(O)cc3)C2=O)c2ccccc21	inactive
COc1ccc(NC(=O)Nc2cccc3cccnc23)cc1	active
O=C1/C(=C/c2cccs2)CCc2ccccc21	active
COc1ccc(/C=C/c2noc(-c3ccccc3OC(C)=O)n2)cc1	active
COC(=O)c1sc(NC(=O)c2ccc(OC)cc2OC)nc1C	active
O=C(c1cnn(-c2ccc(Cl)cc2)c1)c1ccccc1O	active
O=[N+]([O-])c1ccc2nc(-c3ccccn3)[nH]c2c1	active
Brc1ccc2nc(N3CCCC3)sc2c1	active
c1ccc(Nc2nc(-c3ccncc3)cs2)nc1	active
Cc1cc(C(=O)Nc2nnc(C3CC3)s2)c(C)s1	active
O=C(Nc1nnc(SCc2ccccc2)s1)c1ccco1	active
COc1cccc(C(=O)Nc2nc3ccc(S(C)(=O)=O)cc3s2)c1	active
CC(=O)Oc1ccc2c(c1)C(=O)c1ccccc1C2=O	active
O=C(c1ccc(F)cc1)n1c(=S)nc2ccccn21	inactive
CC(=O)Nc1cccc(-c2csc(Nc3cccc(C)n3)n2)c1	active
CC(C)CCNC(=O)c1ccc2c(Cl)c3c(nc2c1)CCC3	active
C/C(=N\Nc1nc2ccccc2[nH]1)c1cccs1	active
CC(=C/c1ccccc1)/C=N/NC(=O)c1cc(C)oc1C	active
c1ccc2[nH]c(-c3nc4ccccc4[nH]3)nc2c1	active
Cc1ccc(S(=O)(=O)C(C#N)c2nc3ccccc3nc2N2CCCC2)cc1C (centres undefined)	inactive
CCOc1ccc(N/C=C/C(=O)c2ccccc2)cc1	active
Fc1ccccc1/C=N/Nc1cc(N2CCCCC2)ncn1	inactive
O=C(Nc1ncc([N+](=O)[O-])s1)C1COc2ccccc2O1 (centres undefined)	active
CCOC(=O)c1sc(NC(=O)c2ccncc2)nc1C	active
CCc1noc(C)c1C(=O)Nc1nc2ccc(OC)cc2s1	active
COc1ccc(Nc2nc(-c3ccccc3)cs2)cc1	active
Cc1ccc(-n2cc3ccc([N+](=O)[O-])cc3n2)cc1	inactive
Clc1ccc(Nc2ccc3ccccc3n2)cc1	inactive
Oc1ccc(N=Cc2sc3ccccc3c2Cl)cc1	inactive
COc1ccc(-n2nnnc2-c2nc3ccccc3s2)cc1	inactive
CN(CCO)c1ccc(/C=N/Nc2nncc3ccccc23)cc1	active
COc1cccc(C(=O)Nc2ccc(N3CCCC3)cc2)c1	active
O=C(Nc1ccc(Cl)cn1)c1ccc2c(c1)OCCO2	active
CC(=O)Nc1ccc(/C=N/NC(=O)c2cccs2)cc1	active
O=C(CSC(=S)N1CCOCC1)c1ccccc1	active
O=C(OCC(=O)N1CCN(c2ccccc2)CC1)c1ccc([N+](=O)[O-])s1	inactive
CC1=NN(C(N)=S)C(=O)C1N=Nc1cc(Cl)ccc1Cl (centres undefined)	inactive
Cc1ccc(C(=O)N/N=C\c2cc(Br)c(Br)o2)cn1	inactive
O=c1c(-c2ccccc2)coc2cc(O)ccc12	active
CCN1CC=C2C(C#N)=C(N)C(C#N)(C#N)[C@H](c3ccoc3)[C@H]2C1	inactive
O=C(Nc1ccc2c(c1)CCC2)c1cccc(S(=O)(=O)Nc2ccccc2Cl)c1	inactive
O=C1/C(=C/c2cccs2)CCC1C1CCCC1 (centres undefined)	active
COc1ccc2nc(Nc3nc4cc5c(cc4s3)OCCO5)sc2c1	inactive
O=C(O)/C=C/C(=O)NNc1ccc([N+](=O)[O-])cc1	active
CCC(=O)Nc1ccc2nn(-c3ccc(F)cc3)nc2c1	inactive
Cc1ccc(N/C=C/C(=O)c2ccccc2)cc1C	active
O=C(Nc1ccccc1)Nc1nc2ccccc2s1	inactive

###

Some compounds, each annotated with its measured activity.
Assay: caspase-8 TRAIL sensitization, hit retest, confirmation, cell-based, NB7+caspase-8, with/without TRAIL, luminescence panel (AID 651596)
Conditions: NB7 neuroblastoma + caspase-8, without TRAIL, luminescence viability, without TRAIL, mean of runs, at 10 µM
QUANTITY MEASURED: activity (%)

COMPOUND	REPORTED
O=C(NC(=S)Nc1ccccn1)c1ccc(-c2ccccc2)cc1	72.8
Cc1ccc2nc(-c3ccc(NC(=O)C4CCCO4)cc3)[nH]c2c1 (stereo unspecified)	71.9
O=C(Nc1ccccn1)c1onc2c1CCCC2	78.2
COc1ccccc1C=NN=C(NN=Cc1ccccc1OC)NN=Cc1ccccc1OC	65.6
Clc1cccc(-c2nc(-c3ccccn3)no2)c1	82.3
CN(C(=S)NC(=O)c1ccc(Cl)cc1)C1CCCCC1	60
O=C(NC(=S)Nc1nc2ccc(F)cc2s1)c1ccco1	77.4
Cc1nn(Cc2ccc(Cl)cc2Cl)c(C)c1NC(=O)CCl	97.8
COc1cccc(NC(=O)n2ncc3c(C)cccc32)c1	64.3
CCOc1ccc2nc(N(CCCN(C)C)C(=O)c3ccc(C(=O)c4ccccc4)cc3)sc2c1	98.2
Cc1cccc(-n2ncc3c(N4CCC(C)CC4)ncnc32)c1	34.7
Cc1ccc(C(=O)Nc2ccc3c(c2)OCCO3)c(C)c1	91.5
O=C1Nc2cc(C(=O)NCCN3CCCCCC3)ccc2S/C1=C/c1ccccc1F	96
O=C(Nc1ccc(NC(=O)c2ccco2)nc1)c1ccco1	61.5
COc1ccc2[nH]c3c(NCCC4=CCCCC4)ncnc3c2c1	44.1
Clc1ccc2nc(-c3ccccc3)cn2c1	74.1
COc1cccc(-c2nnc(Nc3nc4c(F)cccc4s3)o2)c1	84.2
CCCCNC(=O)c1cn(C)c2ccc(S(=O)(=O)N3CC(C)CC(C)C3)cc2c1=O (stereo unspecified)	41.5
COc1ccc2nc(Cl)c(/C=N/Nc3ccccn3)cc2c1	59.5
O=C(N/N=C/c1cccnc1)c1ccc2c(c1)OCCO2	67
CC1CCN(S(=O)(=O)c2ccc3c(c2)C(=NO)c2cc(S(=O)(=O)N4CCC(C)CC4)ccc2-3)CC1	99
O=C(Nc1ccc2nc3ccccc3nc2c1)c1ccccc1	32.9
N#CCCCC#Cc1ccc2c(c1)COc1c3ccccc3nn1-2	75.6
COc1ccc2oc(=Nc3ccccc3)c(-c3nc4ccccc4[nH]3)cc2c1	55
O=C(Nc1nnc(SCC(=O)N2CCOCC2)s1)c1ccccc1Cl	78.2
CN(C)CCCN(C(=O)c1ccc(S(=O)(=O)N(C)C2CCCCC2)cc1)c1nc2ccc(Br)cc2s1	45
CCCC(=O)Nc1ccc(-c2csc(N/N=C\c3ccncc3)n2)cc1	65.6
N/C(=N\OC(=O)COc1ccc(Br)cc1Cl)c1ccccn1	47.5
O=C(CCl)N(Cc1cccc([N+](=O)[O-])c1)c1cccc(Cl)c1	99.6
CCOc1ccc(CN(C)C(=O)[C@H](Cc2ccccc2)NC(=O)OCc2ccccc2)cc1OC	1.82
COc1cccc(/C=C/C(=O)NNC(=O)c2ccco2)c1OC	62.8
NC(=O)c1ccccc1N/C=C/C(=O)c1ccc(F)cc1	73
O=C(Nc1ccc(C(=O)O)cc1)/C(=C\C=C\c1ccccc1)NC(=O)c1ccccc1Cl	53.1
Clc1ccc(-c2nnc(SCc3ccon3)o2)c(Cl)c1	58.7
Nc1c(-c2ccccc2)cnc2cc(-c3ccccc3)nn12	67.4
Cc1ccccc1C(=O)Nc1ccc2c(c1)OCCO2	63.2
COc1ccc(/C(N)=N/OC(=O)c2ccc(OC)c([N+](=O)[O-])c2)cc1OC	84.7
Oc1ccccc1-c1n[nH]c(-c2ccccc2O)n1	48.6
O=C(CSc1nnc(NC(=O)c2ccccc2)s1)NCC1CCCO1 (stereo unspecified)	63.2
COc1ccc(C(=O)NCc2cn3cccc(C)c3n2)cc1OC	3.77
Cn1c(=O)[nH]c(=O)c2c1nc([N+](=O)[O-])n2Cc1ccccc1	96.2
COc1ccc(C(=O)Nc2nnc(SCC(=O)NCc3ccco3)s2)c(OC)c1	61.2
O=C(COc1ccc2ccccc2c1)Nc1nccs1	55.8
C=CCc1ccccc1OCC(=O)N/N=C/c1ccc(OC(C)=O)cc1OC(C)=O	27.2
O=C(Oc1c(CN2CCOCC2)cc(Cl)c2cccnc12)c1ccc(F)cc1	56.1
CCOc1cc(/C=N/N=C(/N)c2nonc2N)cc(Br)c1OCc1ccc(Cl)cc1	37.3
